# subject of test: human P2X7 receptor (Homo sapiens, UniProt Q99572, R270H/Y155H)
# protocol notes: Evaluation of human P2X7 receptor inhibitory activity (Yo-Pro uptake, BzATP stimulation, FLIPR TETRA)
# Type: cell-based
# condition label: antagonistic activity for the human P2X7 receptor; read-out: IC50
outcome measure: IC50

                                test_smiles  endpoint_value
0  COc1cn(Cc2cc(F)cc(F)c2)c(Nc2cc(-c3ccccc3)ccc2C)nc1=O    10 to 100 nM

Entry `COCc1cn(Cc2cc(F)c(F)c(F)c2)c(Nc2cc(-c3nnco3)ccc2C)nc1=O` : reported IC50 = ? 10 to 100 nM

Entry `COc1cc(C)c(Nc2nc(=O)c(F)cn2Cc2cc(F)cc(F)c2)cc1F` : reported IC50 = ? 10 to 100 nM

Entry `Cc1cc(OC(F)(F)F)ccc1Nc1nc(=O)c(F)cn1Cc1cc(F)c(F)c(F)c1` : reported IC50 = ? 10 to 100 nM

Entry `COc1cn(Cc2ccc(F)c(Cl)c2)c(Nc2ccc3[nH]ccc3c2C)nc1=O` : reported IC50 = ? < 10 nM

Entry `Cc1nc2cc(C)c(Nc3nc(=O)c(F)cn3Cc3ccc(F)c(Cl)c3)cc2s1` : reported IC50 = ? < 10 nM

Entry `Cc1cc2c(cc1Nc1nc(=O)c(F)cn1Cc1cc(F)cc(F)c1)CCO2` : reported IC50 = ? < 10 nM

Entry `COc1ccc(Nc2nc(=O)cnn2Cc2cc(F)cc(F)c2)c(C)c1` : reported IC50 = ? < 10 nM

Entry `COc1cn(Cc2cc(F)c(F)c(F)c2)c(Nc2ccc(OCF)cc2C)nc1=O` : reported IC50 = ? < 10 nM

Entry `Cc1cc2cc(Nc3nc(=O)c(F)cn3Cc3ccc(F)c(F)c3)c(C)cc2[nH]1` : reported IC50 = ? 10 to 100 nM

Entry `COc1cn(Cc2ccc(F)c(F)c2)c(Nc2cc(OC3CC3)ccc2C)nc1=O` : reported IC50 = ? 10 to 100 nM

Entry `COc1cn(Cc2cc(F)cc(F)c2)c(Nc2cc(Oc3ccccn3)ccc2C)nc1=O` : reported IC50 = ? < 10 nM

Entry `COc1cn(Cc2cc(F)cc(F)c2)c(Nc2cc(-c3cccn(C)c3=O)c(F)cc2C)nc1=O` : reported IC50 = ? 10 to 100 nM

Entry `Cc1c(F)cccc1Nc1nc(=O)c(F)cn1Cc1cc(F)c(F)c(F)c1` : reported IC50 = ? < 10 nM

Entry `COc1cn(Cc2cc(F)c(F)c(F)c2)c(Nc2ccc(OC(F)(F)F)cc2C)nc1=O` : reported IC50 = ? 10 to 100 nM

Entry `COc1cn(Cc2ccc(F)c(Cl)c2)c(Nc2cc3nc(C)sc3cc2C)nc1=O` : reported IC50 = ? 10 to 100 nM

Entry `Cc1ccccc1Nc1nc(=O)c(C)cn1Cc1cc(F)c(F)c(F)c1` : reported IC50 = ? 10 to 100 nM
